biological target: T1, AIEKLVEGKSQIQ (not fully specified); assay: ELISA, immobilized peptide AIEKLVEGKSQIQ
T1 construct: member of the group m41; the text speaks of glycine substitution, the sheet prints alanine
T1 peptide: AIEKLVEGKSQIQ
No end group written: not given here.
measured.property: OD450 absorbance
One number for each entry.

Report OD450 absorbance for MM08 (antibody, IgG1, V domains shown) VH: QVQLQQPGAELVRPGASVKLSCKSSDYTFTRYWMNWVKQRPGQGLEWIGMIDPSDSETHHNQMFKDKATLTVDKSSSTAYMQLSSLTSEDSAVYFCARYLGGKEGSFDYWGQGTTLTVSS VL: DIVLTQSPSSLAVSAGERVTMSCKSSQSLFNSRTRKNYLAWYQQKPGQSPKLLLYWASTRESGVPDRFTGSGSGTDFTLTISSVKTEDLAVYYCKQSYELPWTFGGGTKLEMKR please. 0.942
